- ASSAY SUMMARY: Surface tension and critical micelle concentration (CMC) of aqueous surfactant solutions
- Assay type: physicochemical
- MEASUREMENT CONTEXT: Table 3; deionized water, at CMC
Would you kindly list Surf Tens. (surface tension at the CMC) for each of these compounds?

Consider O=C(NCCOC(=O)C(F)(C(F)(F)F)C(F)(F)C(F)(F)C(F)(F)C(F)(F)C(F)(F)C(F)(F)F)c1cc[n+]([O-])cc1 (centres unmarked) . Its measured Surf Tens. (surface tension at the CMC) is 15.5 dynes/cm

Looking up C[N+](C)([O-])CCCNC(=O)C(F)(C(F)(F)F)C(F)(F)C(F)(F)C(F)(F)C(F)(F)C(F)(F)C(F)(F)C(F)(F)C(F)(F)C(F)(F)C(F)(F)F (centres unmarked) , I found its Surf Tens. (surface tension at the CMC) recorded as 17.1 dynes/cm

// field: Surf Tens. (surface tension at the CMC); key: C[N+](C)([O-])CCCNC(=O)C(F)(C(F)(F)F)C(F)(F)C(F)(F)C(F)(F)C(F)(F)C(F)(F)C(F)(F)F (centres unmarked) ; value = 16.6 dynes/cm

Short answer for CN(C)CCCN(CCCN(C)C)C(=O)C(F)(C(F)(F)F)C(F)(F)C(F)(F)C(F)(F)C(F)(F)C(F)(F)C(F)(F)C(F)(F)F (centres unmarked) : Surf Tens. (surface tension at the CMC) was 22.0 dynes/cm

C[N+](C)([O-])CCCNC(=O)C(F)(C(F)(F)F)C(F)(F)C(F)(F)C(F)(F)C(F)(F)C(F)(F)F (centres unmarked) [Example E2, C5 F11 CF(CF3)CONH(CH2)3 N^+ (CH3)2 O^-] has a reported Surf Tens. (surface tension at the CMC) of 17.5 dynes/cm

The reported Surf Tens. (surface tension at the CMC) of the compound C[N+](C)(CCCN(CCC[N+](C)(C)CCC(=O)[O-])C(=O)C(F)(C(F)(F)F)C(F)(F)C(F)(F)C(F)(F)C(F)(F)C(F)(F)C(F)(F)C(F)(F)F)CCC(=O)[O-] (centres unmarked) was 23.6 dynes/cm

The reported value for C[N+](C)(CCCNC(=O)C(F)(C(F)(F)F)C(F)(F)C(F)(F)C(F)(F)C(F)(F)C(F)(F)C(F)(F)C(F)(F)F)CCC(=O)[O-] (centres unmarked) in terms of Surf Tens. (surface tension at the CMC) is 16.6 dynes/cm

Surf Tens. (surface tension at the CMC) for C[n+]1ccc(C(=O)NCCOC(=O)C(F)(C(F)(F)F)C(F)(F)C(F)(F)C(F)(F)C(F)(F)C(F)(F)C(F)(F)C(F)(F)F)cc1 (centres unmarked) is 15.0 dynes/cm

What the record says about O=C(NCCOC(=O)C(F)(C(F)(F)F)C(F)(F)C(F)(F)C(F)(F)C(F)(F)C(F)(F)C(F)(F)C(F)(F)F)c1cc[n+]([O-])cc1 (centres unmarked) : Surf Tens. (surface tension at the CMC) is 14.5 dynes/cm

Surf Tens. (surface tension at the CMC) reading for C[n+]1ccc(C(=O)NCCOC(=O)C(F)(C(F)(F)F)C(F)(F)C(F)(F)C(F)(F)C(F)(F)C(F)(F)C(F)(F)F)cc1 (centres unmarked) : 15.5 dynes/cm

Value of Surf Tens. (surface tension at the CMC) reported for the compound O=C(OCCc1cccc[n+]1[O-])C(F)(C(F)(F)F)C(F)(F)C(F)(F)C(F)(F)C(F)(F)C(F)(F)C(F)(F)F (centres unmarked) is 18.3 dynes/cm

Source listed as patent US6015838A.
